Entry source: paper PMC1851987

- TARGET_OF_ASSAY: OCT2 (wild-type 400R) (Homo sapiens, UniProt O15244, S270A)
- Sequence (O15244 1-555 S270A): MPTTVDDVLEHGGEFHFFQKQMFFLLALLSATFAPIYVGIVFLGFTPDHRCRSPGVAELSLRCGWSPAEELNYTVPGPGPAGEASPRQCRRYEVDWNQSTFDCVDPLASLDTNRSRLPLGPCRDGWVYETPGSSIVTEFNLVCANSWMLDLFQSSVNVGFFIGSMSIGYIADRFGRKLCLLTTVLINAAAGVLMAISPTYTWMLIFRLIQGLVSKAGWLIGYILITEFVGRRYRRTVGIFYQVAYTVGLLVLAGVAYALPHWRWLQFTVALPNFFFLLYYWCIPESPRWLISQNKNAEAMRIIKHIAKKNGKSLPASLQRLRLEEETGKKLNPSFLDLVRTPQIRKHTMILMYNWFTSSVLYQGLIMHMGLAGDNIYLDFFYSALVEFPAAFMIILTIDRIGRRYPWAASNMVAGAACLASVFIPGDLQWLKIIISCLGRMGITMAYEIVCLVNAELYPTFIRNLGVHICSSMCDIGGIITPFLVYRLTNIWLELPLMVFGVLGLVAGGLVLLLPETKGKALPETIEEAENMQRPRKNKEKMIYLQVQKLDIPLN
- METHOD_SUMMARY: Specific uptake into OCT2 (wild-type) transfected HEK-293 cells vs empty vector, LC-MS-MS
- CONDITIONS_USED: human, pH 7.4
OBSERVABLE: Km at 1 min (µM)
Provide the reading as a plain figure in µM.

Query string: Form field - read-out: Km at 1 min; system: OCT2 (wild-type 400R) (Homo sapiens, UniProt O15244, S270A); submitted item: CC1NCCc2cc(O)c(O)cc21 (stereo not shown) [salsolinol]
Result string: 130
